TGT: hCA II (Homo sapiens)
TEST NAME: CA inhibition assay (hydrolysis of 4-nitrophenylacetate)
Type: biochemical
TEST PARAMETERS: 4-NPA hydrolysis; three independent assays, relative errors 5–10%
From the text: Carbonic anhydrase has the ability to catalyse the hydrolysis of 4-NPA. […] More detailed operations and specific parameters are as reported earlier.
For each record, write down the corresponding IC50.

What value of IC50 has been recorded for this entry: NS(=O)(=O)c1ccc(-n2cc(-c3cccc(NC(=O)CCCC(=O)N[C@@H]4O[C@H](CO)[C@@H](O)[C@H](O)[C@H]4O)c3)nn2)cc1 [Compound 16i]
10.1 nM

What value of IC50 has been recorded for this entry: NS(=O)(=O)c1ccc(-n2cc(-c3ccc(NC(=O)CCC(=O)N[C@@H]4O[C@H](CO)[C@@H](O)[C@H](O)[C@H]4O)c(Cl)c3)nn2)cc1 [Compound 16d]
90.8 nM

What value of IC50 has been recorded for this entry: NS(=O)(=O)c1ccc(-n2cc(-c3cc(F)c(NC(=O)CCC(=O)N[C@@H]4O[C@H](CO)[C@@H](O)[C@H](O)[C@H]4O)c(F)c3)nn2)cc1 [Compound 16g]
149 nM

* * *

TGT: hCA II (Homo sapiens)
TEST NAME: CA inhibition assay (hydrolysis of 4-nitrophenylacetate)
Format: biochemical
TEST PARAMETERS: 4-NPA hydrolysis; three independent assays, relative errors 5–10%
For each record, write down the corresponding IC50.
Your answer is read as nM, so omit the unit and give the number.

What value of IC50 has been recorded for this entry: Cc1cc(-c2cn(-c3ccc(S(N)(=O)=O)cc3)nn2)ccc1N [Compound 14e]
37.9

What value of IC50 has been recorded for this entry: Cc1cc(-c2cn(-c3ccc(S(N)(=O)=O)cc3)nn2)ccc1NC(=O)CCC(=O)N[C@@H]1O[C@H](CO)[C@@H](O)[C@H](O)[C@H]1O [Compound 16e]
41.6

What value of IC50 has been recorded for this entry: Nc1ccc(-c2cn(-c3ccc(S(N)(=O)=O)cc3)nn2)cc1[N+](=O)[O-] [Compound 14h]
102

What value of IC50 has been recorded for this entry: NS(=O)(=O)c1ccc(-n2cc(-c3cccc(NC(=O)CCC(=O)N[C@@H]4O[C@H](CO)[C@@H](O)[C@H](O)[C@H]4O)c3)nn2)cc1 [Compound 16b]
13.3

* * *

For each record, write down the corresponding melting point.

What value of melting point has been recorded for this entry: Nc1ccc(-c2cn(-c3ccc(S(N)(=O)=O)cc3)nn2)cc1F [Compound 14c]
245 to 247 °C

What value of melting point has been recorded for this entry: Nc1c(F)cc(-c2cn(-c3ccc(S(N)(=O)=O)cc3)nn2)cc1F [Compound 14g]
280 to 283 °C

What value of melting point has been recorded for this entry: Cc1cc(-c2cn(-c3ccc(S(N)(=O)=O)cc3)nn2)ccc1N [Compound 14e]
264 to 266 °C

* * *

TGT: hCA IX (Homo sapiens)
TEST NAME: CA inhibition assay (hydrolysis of 4-nitrophenylacetate)
Type: biochemical
TEST PARAMETERS: 4-NPA hydrolysis; three independent assays, relative errors 5–10%
Excerpt: Carbonic anhydrase has the ability to catalyse the hydrolysis of 4-NPA. […] More detailed operations and specific parameters are as reported earlier.
QUANTITY: IC50 (nM)
Your answer is read as nM, so omit the unit and give the number.

What value of IC50 has been recorded for this entry: Nc1cccc(-c2cn(-c3ccc(S(N)(=O)=O)cc3)nn2)c1 [Compound 14b]
50.4

What value of IC50 has been recorded for this entry: NS(=O)(=O)c1ccc(-n2cc(-c3cccc(NC(=O)CCCC(=O)N[C@@H]4O[C@H](CO)[C@@H](O)[C@H](O)[C@H]4O)c3)nn2)cc1 [Compound 16i]
300

What value of IC50 has been recorded for this entry: NS(=O)(=O)c1ccc(-n2cc(-c3cc(F)c(NC(=O)CCCC(=O)N[C@@H]4O[C@H](CO)[C@@H](O)[C@H](O)[C@H]4O)c(F)c3)nn2)cc1 [Compound 16n]
352

Origin of measurements: paper PMC8704611
